biological target: huCTLA4 (Homo sapiens, UniProt P16410); test: Flow binding to CHO cells stably expressing CTLA4; set-up: huCTLA4 and huPD-L1, full-length mammalian surface expression constructs were generated; expressed in transfected cells; host or cells: CHO cells, lentiviral transduction, sorted to >98% purity; details: Table E11; CHO cells stably expressing CTLA4; 33.3 nM
Sequence (P16410 36-223): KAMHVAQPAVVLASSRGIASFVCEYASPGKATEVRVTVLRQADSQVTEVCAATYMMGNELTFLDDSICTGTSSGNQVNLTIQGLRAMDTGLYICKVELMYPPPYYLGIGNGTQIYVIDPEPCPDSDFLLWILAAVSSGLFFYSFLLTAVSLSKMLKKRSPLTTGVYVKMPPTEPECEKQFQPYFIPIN
Give measured CTLA4 MFI at 33.3 nM for each item. Keep answers brief.

{"molecule": "R29C/E35D/M47L/V68M/A71G/L85M (protein, UniProt P33681 35-288, looked up, variant R29C E35D M47L V68M A71G L85M, Fc fusion) T-lymphocyte activation …: VIHVTKEVKEVATLSCGHNVSVEELAQTCIYWQKDKKMVLTMMSGDLNIWPEYKNRTIFDITNNLSIMILGLRPSDEGTYECVVMKYEKDAFKREHLAEVTLSVKADFPTPSISDFEIPTSNIRRIICSTSGGFPEPHLSWLENGEELNAINTTVSQDPETELYAVSSKLDFNMTTNHSFMCLIKYGHLRVNQTFNWNTTKQEHFPDNLLPSWAITLISVNGIFVICCLTYCFAPRCRERRRNERLRRESVRPV", "CTLA4 MFI at 33.3 nM": 91}

For each of the items listed, what is its CTLA4 MFI at 33.3 nM?
1. E35D/M47V/V68M/L85M (protein, UniProt P33681 35-288, looked up, variant E35D M47V V68M L85M) T-lymphocyte activation …: VIHVTKEVKEVATLSCGHNVSVEELAQTRIYWQKDKKMVLTMMSGDVNIWPEYKNRTIFDITNNLSIMILALRPSDEGTYECVVMKYEKDAFKREHLAEVTLSVKADFPTPSISDFEIPTSNIRRIICSTSGGFPEPHLSWLENGEELNAINTTVSQDPETELYAVSSKLDFNMTTNHSFMCLIKYGHLRVNQTFNWNTTKQEHFPDNLLPSWAITLISVNGIFVICCLTYCFAPRCRERRRNERLRRESVRPV
2. V22D/E24D/E35D/M47V/V68M (protein, CD80 v385 ECD) VIHVTKEVKEVATLSCGHNVSDEDLAQTRIYWQKDKKMVLTMMSGDVNIWPEYKNRTIFDITNNLSIMILALRPSDEGTYECVVLKYEKDAFKREHLAEVTLSVKADFPTPSISDFETPTSNIRRIICSTSGGFPEPHLSWLENGEELNAINTTVSQDPETELYAVSSKLDFNMTTNHSFMCLIKYGHLRVNQTFNWNTTKQEHFPDN

Result:
1. 15997
2. 16899
